B1: PTPRD (parent)
chain: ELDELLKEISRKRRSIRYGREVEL

- Variants of: B1
- procedure_summary: protein stability index of a GFP-peptide fusion (GPS, HEK-293T) (PSI 1-6); higher = more stable;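 also: lentivirally expressed fusions sorted by FACS into six bins by GFP to DsRed ratio, PSI derived from sequencing read proportions per bin multiplied by bin number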
- run_conditions: c terminus: a fixed tail appended
Recorded protein stability index for the following variants
# respond with the number and nothing more

- residue_string: "ELDELLKEISRKRRSIRRGREVEL [Y18R]"
  endpoint_label: "protein stability index"
  meas_value: 2.33

Recorded protein stability index for ELDELLKEISRKRRSIRYGREVEP [L24P] , please?
2.89

Recorded protein stability index for ELDELLKEISRKRRSIRWGREVEL [Y18W] , please?
1.84
